As shown below, each of these compounds has a reported Relative activity(%) value.
- Tested on: Vitex extra cellular peroxidase
- Type: biochemical, Vitex negundo
- condition-set: Reagent 1 Mm; None = 100
recorded-endpoint: Relative activity(%)

                                   compound  measured_number
0                                 [I-].[K+]              116
1                  O=S(=O)([O-])[O-].[Mg+2]               97
2                  O=S(=O)([O-])[O-].[Zn+2]              138
3  [N-]=[N+]=[N-].[Na+] [NaN3, sodium azide]               73
4                              [Cl][Hg][Cl]               62
5                        [Ca+2].[Cl-].[Cl-]              103
6                  O=S(=O)([O-])[O-].[Mn+2]              131
